Parameter: inhibition at 1 µM. Scope: all listed entries.
molecular target: VEGF-R2 (Homo sapiens, UniProt P35968, DEL940-989/E990V); construct: VEGF-R2Δ50 contains residues 806–939 and 990–1171; made in house; host or cells: baculovirus/insect cells; assay: VEGF-R2 Assay (coupled spectrophotometric FLVK-P / ELISA); type: biochemical; conditions: read-out: VEGF % Inhib. at 1 μM
Sequence (P35968 with tags, fused parts or gaps DEL940-989/E990V limits assumed): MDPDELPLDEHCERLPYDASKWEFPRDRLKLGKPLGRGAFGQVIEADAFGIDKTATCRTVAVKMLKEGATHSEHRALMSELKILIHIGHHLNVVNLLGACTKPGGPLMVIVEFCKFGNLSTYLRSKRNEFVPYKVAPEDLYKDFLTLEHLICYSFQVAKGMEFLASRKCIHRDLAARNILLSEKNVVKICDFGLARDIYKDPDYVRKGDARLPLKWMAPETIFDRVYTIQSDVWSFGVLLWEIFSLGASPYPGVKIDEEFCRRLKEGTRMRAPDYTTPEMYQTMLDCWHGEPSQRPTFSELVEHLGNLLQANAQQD
Don't forget the unit after the value.

[
  {
    "SUBSTANCE SMILES": "Cc1c(CN(C)C)cncc1-c1ccc2[nH]nc(-c3nc4ccccc4[nH]3)c2c1",
    "TARGET SYSTEM": "VEGF-R2 (Homo sapiens, UniProt P35968, DEL940-989/E990V)",
    "inhibition at 1 µM": "15%"
  },
  {
    "SUBSTANCE SMILES": "c1ccc2[nH]c(-c3n[nH]c4ccc(-c5cncc6c5CCCN6)cc34)nc2c1",
    "TARGET SYSTEM": "VEGF-R2 (Homo sapiens, UniProt P35968, DEL940-989/E990V)",
    "inhibition at 1 µM": "46%"
  },
  {
    "SUBSTANCE SMILES": "Cc1c(/C=C/CO)cncc1-c1ccc2[nH]nc(-c3nc4ccccc4[nH]3)c2c1",
    "TARGET SYSTEM": "VEGF-R2 (Homo sapiens, UniProt P35968, DEL940-989/E990V)",
    "inhibition at 1 µM": "31%"
  }
]

IN: Report inhibition at 1 µM for CCc1cncc(-c2ccc3[nH]nc(/C=C/c4ccccc4)c3c2)c1Cl please.
OUT: 51%

IN: Likewise for CS(=O)(=O)Nc1ccc2nc(-c3n[nH]c4ccc(-c5cncc6ccccc56)cc34)[nH]c2c1 ?
OUT: 45%

IN: Likewise for Cc1c(CO)cncc1-c1ccc2[nH]nc(-c3nc4ccccc4[nH]3)c2c1 ?
OUT: 24%

IN: Likewise for CCNCc1cccc2[nH]c(-c3n[nH]c4ccc(-c5cncc6ccccc56)cc34)nc12 ?
OUT: 17%

IN: Likewise for CN(C)Cc1cccc2[nH]c(-c3n[nH]c4ccc(-c5cncc6ccccc56)cc34)nc12 ?
OUT: 17%

* * *

target: CDK4/cyclin D3 (Homo sapiens); assay: Inhibition of CDK4/Cyclin D Retinoblastoma Kinase Activity; settings: apparent Ki
Parameter: Ki. Scope: all listed entries.
Don't forget the unit after the value.

[
  {
    "SUBSTANCE SMILES": "c1ccc2c(-c3ccc4[nH]nc(-c5nc6c(CCN7CCCC7)cccc6[nH]5)c4c3)cncc2c1",
    "Ki": "19 nM"
  },
  {
    "SUBSTANCE SMILES": "Cc1c(/C=C/CO)cncc1-c1ccc2[nH]nc(-c3nc4ccccc4[nH]3)c2c1",
    "Ki": "1.6 nM"
  },
  {
    "SUBSTANCE SMILES": "c1ccc2c(-c3ccc4[nH]nc(-c5nc6c(CN7CCCC7)cccc6[nH]5)c4c3)cncc2c1",
    "Ki": "1.1 nM"
  }
]

Okay, next one:
IN: Report Ki for c1ccc(-c2n[nH]c3ccc(-c4ccncc4)cc23)cc1 please.
OUT: 2400 nM

* * *

tested on: HCT 116 cell line; assay: Inhibition of Cell Growth (MTT tetrazolium salt assay); type: cell-based; conditions: Homo sapiens, HCT-116, read-out: HCT 116 IC90 (uM)
Parameter: IC90. Scope: all listed entries.
Please give a number only; it is taken to be in µM.

[
  {
    "MOLECULE": "Cc1nc(-c2n[nH]c3ccc(-c4cncc5ccccc45)cc23)[nH]c1-c1ccccc1 [Example 67]",
    "IC90 [µM]": 4.7
  },
  {
    "MOLECULE": "Cc1c(CNC(C)C)cncc1-c1ccc2[nH]nc(-c3nc4ccccc4[nH]3)c2c1 [Example 78]",
    "IC90 [µM]": 0.22
  },
  {
    "MOLECULE": "CC(C)NCc1cccc2[nH]c(-c3n[nH]c4ccc(-c5cncc6ccccc56)cc34)nc12 [Example 38]",
    "IC90 [µM]": 0.06
  },
  {
    "MOLECULE": "c1ccc(CNc2cccc3c(-c4ccc5[nH]nc(-c6nc7ccccc7[nH]6)c5c4)cncc23)cc1 [Example 57]",
    "IC90 [µM]": 5
  }
]

Okay, next one:
IN: Report IC90 for CCNCc1cccc2[nH]c(-c3n[nH]c4ccc(-c5cncc6ccccc56)cc34)nc12 [Example 37] please.
OUT: 0.12

* * *

biological target: CDK4/cyclin D3 (Homo sapiens, UniProt P11802); assay: Inhibition of CDK4/Cyclin D Retinoblastoma Kinase Activity; conditions: apparent Ki
Sequence (P11802 2-303 limits assumed): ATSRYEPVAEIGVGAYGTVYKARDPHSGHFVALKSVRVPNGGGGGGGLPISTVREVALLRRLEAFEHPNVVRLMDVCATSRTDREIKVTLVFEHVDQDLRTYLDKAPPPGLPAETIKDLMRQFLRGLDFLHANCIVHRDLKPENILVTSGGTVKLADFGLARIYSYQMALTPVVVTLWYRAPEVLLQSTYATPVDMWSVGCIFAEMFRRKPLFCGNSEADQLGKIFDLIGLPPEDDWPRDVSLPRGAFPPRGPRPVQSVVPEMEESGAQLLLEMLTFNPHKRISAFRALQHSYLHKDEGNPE
Sequence (P30281 1-264 limits assumed, further chain): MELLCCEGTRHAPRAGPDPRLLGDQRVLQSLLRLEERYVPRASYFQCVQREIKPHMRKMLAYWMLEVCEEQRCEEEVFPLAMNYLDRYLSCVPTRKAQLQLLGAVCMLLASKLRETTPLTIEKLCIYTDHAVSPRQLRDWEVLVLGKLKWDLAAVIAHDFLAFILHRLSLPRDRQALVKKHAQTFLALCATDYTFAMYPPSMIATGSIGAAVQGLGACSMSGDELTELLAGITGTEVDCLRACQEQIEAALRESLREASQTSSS
pKi: −log10 of the molar value.
Answer Not fulfilled if pKi is under 8, and Fulfilled if it is 8 or more.

[
  {
    "COMPOUND": "Cc1cnccc1-c1ccc2[nH]nc(/C=C/c3ccccc3)c2c1",
    "CAT": "Not fulfilled"
  },
  {
    "COMPOUND": "Cc1nc(-c2n[nH]c3ccc(-c4cncc5ccccc45)cc23)[nH]c1-c1ccccc1",
    "CAT": "Not fulfilled"
  },
  {
    "COMPOUND": "Cc1c(CNc2cccnc2)cncc1-c1ccc2[nH]nc(-c3nc4ccccc4[nH]3)c2c1",
    "CAT": "Fulfilled"
  },
  {
    "COMPOUND": "Cc1c(O)cccc1-c1ccc2[nH]nc(-c3nc4c(O)cccc4[nH]3)c2c1",
    "CAT": "Not fulfilled"
  },
  {
    "COMPOUND": "CCc1cncc(-c2ccc3[nH]nc(/C=C/c4ccccc4)c3c2)c1Cl",
    "CAT": "Not fulfilled"
  },
  {
    "COMPOUND": "CNC(C)c1cccc2[nH]c(-c3n[nH]c4ccc(-c5cncc6ccccc56)cc34)nc12 (centres unmarked)",
    "CAT": "Fulfilled"
  },
  {
    "COMPOUND": "c1ccc(CNc2cccc3c(-c4ccc5[nH]nc(-c6nc7ccccc7[nH]6)c5c4)cncc23)cc1",
    "CAT": "Not fulfilled"
  },
  {
    "COMPOUND": "c1ccc2c(-c3ccc4[nH]nc(-c5nc6c(Cn7ccnc7)cccc6[nH]5)c4c3)cncc2c1",
    "CAT": "Fulfilled"
  }
]

IN: Would you say Cc1c(CCCO)cncc1-c1ccc2[nH]nc(-c3nc4ccccc4[nH]3)c2c1 shows pKi at minimum 8?
OUT: Fulfilled

IN: Likewise for c1c[nH]c(-c2n[nH]c3ccc(-c4ccncc4)cc23)c1 ?
OUT: Not fulfilled

IN: Likewise for CCN(CC)Cc1cccc2[nH]c(-c3n[nH]c4ccc(-c5cncc6ccccc56)cc34)nc12 ?
OUT: Fulfilled

* * *

Biological target: FGFR1 tyrosine kinase (Homo sapiens, UniProt P11362, C488A/C584S/L457V)
Construct: the cytosolic domain of FGFR1 tyrosine kinase (amino acids 456–766); made in house; host or cells: Sf9 insect cells (baculovirus)
Sequence (P11362 456-766 L457V/C488A/C584S): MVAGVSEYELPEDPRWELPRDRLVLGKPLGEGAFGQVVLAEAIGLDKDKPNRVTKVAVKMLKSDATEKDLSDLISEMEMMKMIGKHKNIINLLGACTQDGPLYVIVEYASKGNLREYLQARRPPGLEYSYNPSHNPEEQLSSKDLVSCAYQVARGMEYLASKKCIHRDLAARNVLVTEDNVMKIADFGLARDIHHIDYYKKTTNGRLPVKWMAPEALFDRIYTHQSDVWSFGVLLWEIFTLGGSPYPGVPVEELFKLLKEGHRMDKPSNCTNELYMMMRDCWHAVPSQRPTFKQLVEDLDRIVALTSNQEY
Assay: Inhibition of phosphorylated FGF receptor tyrosine kinase activity
Assay type: biochemical
Conditions: read-out: FGF % Inhib. at 1 μM
Protocol: Inhibition of Phosphorylated FGF Receptor and LCK Tyrosine Kinase Activity […] Tyrosine kinase activity was measured using a coupled, continuous spectrophotometric assay, in which production of phosphorylated poly(Glu, Tyr; 4:1) substrate and ADP is coupled to the pyruvate kinase-catalyzed transfer of a phosphate from phosphoenolpyruvate to ADP, with generation of pyruvate and regeneration of ATP. […] Percent inhibition was calculated relative to control enzyme assayed in the presence of 2% (v/v) DMSO.
Binning rule for recorded inhibition at 1 µM: low value = under 40%, medium value = from 40% up to 60%, high value = 60% and over

[
  {
    "COMPOUND": "Clc1ccncc1-c1ccc2[nH]nc(/C=C/c3ccccc3)c2c1 [Example 42]",
    "CAT": "high value"
  }
]

IN: Place this compound in its band: Cc1c(-c2ccncc2)cncc1-c1ccc2[nH]nc(-c3nc4c(CN(C)C)cccc4[nH]3)c2c1 [Example 68]
OUT: low value

* * *

target: FGFR1 tyrosine kinase (Homo sapiens, UniProt P11362, C488A/C584S/L457V); construct: the cytosolic domain of FGFR1 tyrosine kinase (amino acids 456–766); made in house; host or cells: Sf9 insect cells (baculovirus); experiment: Inhibition of phosphorylated FGF receptor tyrosine kinase activity; type: biochemical; conditions: read-out: FGF % Inhib. at 1 μM
Answer Criterion not met if inhibition at 1 µM is under 40%, and Criterion met if it is 40% or more.

Example cases with answers are listed next.
[
  {
    "SUBSTANCE SMILES": "Cc1c(-c2ccc3[nH]nc(-c4nc5ccccc5[nH]4)c3c2)cncc1-c1c[nH]cn1",
    "CAT": "Criterion met"
  },
  {
    "SUBSTANCE SMILES": "Cc1c(-c2ccncc2)cncc1-c1ccc2[nH]nc(-c3nc4ccccc4[nH]3)c2c1",
    "CAT": "Criterion not met"
  },
  {
    "SUBSTANCE SMILES": "Cc1c(-c2ccc3[nH]nc(/C=C/c4ccccc4)c3c2)ccc(CCCO)c1O",
    "CAT": "Criterion met"
  },
  {
    "SUBSTANCE SMILES": "CN(C)Cc1cccc2[nH]c(-c3n[nH]c4ccc(-c5cncc6ccccc56)cc34)nc12",
    "CAT": "Criterion met"
  },
  {
    "SUBSTANCE SMILES": "CCc1c(-c2ccncc2)cncc1-c1ccc2[nH]nc(-c3nc4ccccc4[nH]3)c2c1",
    "CAT": "Criterion met"
  }
]

IN: Would you say Clc1ccncc1-c1ccc2[nH]nc(-c3nc4ccccc4[nH]3)c2c1 shows inhibition at 1 µM at minimum 40%?
OUT: Criterion met

IN: Likewise for CC(C)NCc1cccc2[nH]c(-c3n[nH]c4ccc(-c5cncc6ccccc56)cc34)nc12 ?
OUT: Criterion met

IN: Likewise for Fc1ccccc1-c1ccc2[nH]nc(-c3nc4ccccc4[nH]3)c2c1 ?
OUT: Criterion met

IN: Likewise for Cc1c(-c2cccc(CO)c2)cncc1-c1ccc2[nH]nc(-c3nc4ccccc4[nH]3)c2c1 ?
OUT: Criterion not met

Attribution: patent US7232912B2
